Where do these numbers come from? They come from patent US20250163104A1.

target: human PD-1 / PD-L1-Ig binding on Jurkat cell line over-expressing human PD-1 (Jurkat-PD-1) (Homo sapiens, UniProt Q15116); construct: expressed in transfected cells; host or cells: Jurkat; test: Jurkat-PD-1 Cell Binding High-Content Screening Assay (CBA); format: cell-based; details: Jurkat-PD-1 cells, PE-labeled PD-L1-Ig 20 nM final; read-out: Jurkat HPD1_PDL1 IC50
Sequence (Q15116 25-288): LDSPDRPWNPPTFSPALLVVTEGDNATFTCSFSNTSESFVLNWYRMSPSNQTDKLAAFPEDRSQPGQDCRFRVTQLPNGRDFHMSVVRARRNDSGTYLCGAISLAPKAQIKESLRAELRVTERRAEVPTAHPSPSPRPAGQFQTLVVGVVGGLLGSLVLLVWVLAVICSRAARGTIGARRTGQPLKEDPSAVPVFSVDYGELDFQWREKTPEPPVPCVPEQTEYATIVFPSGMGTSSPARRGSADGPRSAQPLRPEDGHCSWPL
Where a SMILES comes first, the peptide text is derived from it. Bridges are numbered along the chain shown (N, C = ends). [ ]: non-standard residue; d: D form. ξ: configuration not given here. Bip = N[C@@H](Cc1ccc(-c2ccccc2)cc1)C(=O)O; 4Pal = N[C@@H](Cc1ccncc1)C(=O)O; Cha = N[C@@H](CC1CCCCC1)C(=O)O; Thr(3ξ) = CC(O)[C@H](N)C(=O)O; Orn = NCCC[C@H](N)C(=O)O; Dab = NCC[C@H](N)C(=O)O; Dap = NC[C@H](N)C(=O)O
Listing of entries alongside the reported IC50.
Just the number please, in nM, no unit attached.

Worked cases, answers included:
CC(C)C[C@H]1NC(=O)[C@H](CCCN)NC(=O)[C@H](C(C)C)NC(=O)[C@H](Cc2ccc(-c3ccccc3)cc2)NC(=O)[C@H](C(C)C)NC(=O)[C@H](Cc2c[nH]c3ccccc23)NC(=O)[C@H](CC(=O)O)NC(=O)[C@H](Cc2ccc(OCC(=O)O)cc2)NC(=O)[C@H](Cc2ccncc2)NC(=O)CSC[C@@H](C(=O)N[C@@H](C)C(N)=O)NC(=O)[C@H](C(C)O)NC(=O)[C@H](C(C)C)NC(=O)[C@H](CC2CCCCC2)NC(=O)[C@H](CCN)NC1=O (stereo partly shown)
6.9
CC(C)[C@@H]1NC(=O)[C@H](Cc2c[nH]c3ccccc23)NC(=O)[C@H](CC(=O)O)NC(=O)[C@H](Cc2ccncc2)NC(=O)[C@H](CN)NC(=O)CSC[C@@H](C(=O)NCC(N)=O)NC(=O)[C@H](C(C)O)NC(=O)[C@H](C(C)C)NC(=O)[C@H](CC2CCCCC2)NC(=O)[C@H](CCN)NC(=O)[C@@H](C)NC(=O)[C@H](CCCN)NC(=O)[C@H](CCN)NC(=O)[C@H](Cc2ccc(-c3ccccc3)cc2)NC1=O (stereo partly shown) [Compound 2543] ({CH2CO}-[Dap][4Pal]DWV[Bip][Dab][Orn][dA][Dab][Cha]V[Thr(3ξ)]CG-NH2; thioether N-14)
236
CCNC(=O)[C@H](C)NC(=O)[C@@H]1CSCC(=O)N[C@@H](Cc2ccncc2)C(=O)N[C@@H](Cc2ccc(C(=O)O)cc2)C(=O)N[C@@H](CC(=O)O)C(=O)N[C@@H](Cc2cccc(C)c2)C(=O)N[C@@H](C(C)C)C(=O)N[C@@H](Cc2ccc(-c3ccccc3)cc2)C(=O)N[C@@H]([C@@H](C)CC)C(=O)N[C@@H](CCCN)C(=O)N[C@H](CC(C)C)C(=O)N[C@@H](CCN)C(=O)N[C@@H](CC2CCCCC2)C(=O)N[C@@H](C(C)C)C(=O)N[C@@H]([C@@H](C)O)C(=O)N1
42.1

Form field: reported IC50 of CC(C)C[C@H]1NC(=O)[C@H](CCCN)NC(=O)[C@H](C(C)C)NC(=O)[C@H](Cc2ccc(-c3ccccc3)cc2)NC(=O)[C@H](C(C)C)NC(=O)[C@H](Cc2c[nH]c3ccccc23)NC(=O)[C@H](CC(=O)O)NC(=O)[C@H](Cc2ccncc2)NC(=O)[C@H](CN)NC(=O)CSC[C@@H](C(=O)N[C@@H](C)C(N)=O)NC(=O)[C@H]([C@@H](C)O)NC(=O)[C@H](C(C)C)NC(=O)[C@H](CC2CCCCC2)NC(=O)[C@H](Cc2cnc[nH]2)NC1=O 9.6

---

Listing of entries alongside the reported IC50.
biological target: human PD-1 / PD-L1-Ig binding on Jurkat cell line over-expressing human PD-1 (Jurkat-PD-1) (Homo sapiens, UniProt Q15116); construct: expressed in transfected cells; host or cells: Jurkat; experiment: Jurkat-PD-1 Cell Binding High-Content Screening Assay (CBA); assay type: cell-based; conditions: Jurkat-PD-1 cells, PE-labeled PD-L1-Ig 20 nM final; read-out: Jurkat HPD1_PDL1 IC50
Just the number please, in nM, no unit attached.

CC(C)C[C@H]1NC(=O)[C@H](CCCN)NC(=O)[C@H](CCC(=O)O)NC(=O)[C@H](Cc2ccc(-c3ccccc3)cc2)NC(=O)[C@H](C(C)C)NC(=O)[C@H](Cc2ccccc2F)NC(=O)[C@H](CC(=O)O)NC(=O)[C@H](Cc2ccc(C#N)cc2)NC(=O)[C@H](CN)NC(=O)CSC[C@@H](C(=O)N[C@@H](C)C(N)=O)NC(=O)[C@H]([C@@H](C)O)NC(=O)[C@H](C(C)C)NC(=O)[C@H](CC2CCCCC2)NC(=O)[C@H](CCN)NC1=O [Compound 2214]
15.4

Now take the following compound into account.
Form field: reported IC50 of CC(C)C[C@H]1NC(=O)[C@H](CCCN)NC(=O)[C@H](CCC(=O)O)NC(=O)[C@H](Cc2ccc(-c3ccccc3)cc2)NC(=O)[C@H](C(C)C)NC(=O)[C@H](Cc2cccc(C(F)(F)F)c2)NC(=O)[C@H](CC(=O)O)NC(=O)[C@H](Cc2ccc(C(=O)O)cc2)NC(=O)[C@H](Cc2ccc(OCC(=O)O)cc2)NC(=O)CSC[C@@H](C(=O)N[C@@H](C)C(N)=O)NC(=O)[C@H]([C@@H](C)O)NC(=O)[C@H](C(C)C)NC(=O)[C@H](CC2CCCCC2)NC(=O)[C@H](CCN)NC1=O [Compound 1461] 13.6

---

molecular target: human PD-1 / PD-L1-Ig binding on Jurkat cell line over-expressing human PD-1 (Jurkat-PD-1) (Homo sapiens); construct: expressed in transfected cells; host or cells: Jurkat; test: Jurkat-PD-1 Cell Binding High-Content Screening Assay (CBA); assay type: cell-based; conditions: Jurkat-PD-1 cells, PE-labeled PD-L1-Ig 20 nM final; read-out: Jurkat HPD1_PDL1 IC50
Where a SMILES comes first, the peptide text is derived from it. Bridges are numbered along the chain shown (N, C = ends). [ ]: non-standard residue; d: D form. Bip = N[C@@H](Cc1ccc(-c2ccccc2)cc1)C(=O)O; dOrn = NCCC[C@@H](N)C(=O)O; Orn = NCCC[C@H](N)C(=O)O; Dab = NCC[C@H](N)C(=O)O
measurement name: IC50 (µM)
Just the number please, in µM, no unit attached.

Worked cases, answers included:
CC(C)C[C@@H]1NC(=O)[C@H](CCN)NC(=O)[C@@H](CC(C)C)NC(=O)[C@H](CCCN)NC(=O)[C@H](C(C)C)NC(=O)[C@H](Cc2ccc(-c3ccccc3)cc2)NC(=O)[C@H](C(C)C)NC(=O)[C@H](Cc2c[nH]c3ccccc23)NC(=O)[C@H](CC(=O)O)NC(=O)[C@H](Cc2ccc(O)cc2)NC(=O)[C@H](CC(N)=O)NC(=O)CSC[C@@H](C(=O)N[C@@H](C)C(N)=O)NC(=O)[C@H]([C@@H](C)O)NC(=O)[C@H](C(C)C)NC1=O [Compound 1015] ({CH2CO}-NYDWV[Bip]V[Orn][dL][Dab]LVTCA-NH2; thioether N-14)
0.0238
CC(C)C[C@@H]1NC(=O)[C@H](Cc2c[nH]c3ccccc23)NC(=O)[C@H](CC(=O)O)NC(=O)[C@H](Cc2ccc(O)cc2)NC(=O)[C@H](Cc2ccccc2)NC(=O)CSC[C@@H](C(=O)N[C@@H](C)C(N)=O)NC(=O)[C@H](CO)NC(=O)[C@H](C(C)C)NC(=O)[C@H](CC(C)C)NC(=O)[C@H](CC(N)=O)NC(=O)[C@@H](C)NC(=O)[C@@H](CCCN)NC(=O)[C@H](C(C)C)NC(=O)[C@H](Cc2ccc(-c3ccccc3)cc2)NC1=O [Compound 2001] ({CH2CO}-FYDWL[Bip]V[dOrn][dA]NLVSCA-NH2; thioether N-14)
0.0421
CC(C)C[C@H]1NC(=O)[C@H](CCCN)NC(=O)[C@H](C(C)C)NC(=O)[C@H](Cc2ccc(-c3ccccc3)cc2)NC(=O)[C@H](C(C)C)NC(=O)[C@H](Cc2c[nH]c3ccccc23)NC(=O)[C@H](CC(=O)O)NC(=O)[C@H](Cc2ccc(O)cc2)NC(=O)[C@H](CC#N)NC(=O)CSC[C@@H](C(=O)N[C@@H](C)C(N)=O)NC(=O)[C@H](C(C)O)NC(=O)[C@H](C(C)C)NC(=O)[C@H](CC2CCCCC2)NC(=O)[C@H](CCN)NC1=O (stereo partly shown) [Compound 2526]
0.0548

Now take the following molecule into account.
Form field: reported IC50 of CC[C@H](C)[C@@H]1NC(=O)[C@H](Cc2ccc(-c3ccccc3)cc2)NC(=O)[C@H](C(C)C)NC(=O)[C@H](Cc2c[nH]c3ccccc23)NC(=O)[C@H](CC(=O)O)NC(=O)[C@H](Cc2ccc(O)cc2)NC(=O)[C@H](CC(N)=O)NC(=O)CSC[C@@H](C(=O)N[C@@H](C)C(N)=O)NC(=O)[C@H]([C@@H](C)O)NC(=O)[C@H](C(C)C)NC(=O)[C@H](CC(C)C)NC(=O)[C@H](CCCNC(=N)N)NC(=O)[C@@H](CC(C)C)NC(=O)[C@H](CCCN)NC1=O [Compound 1143] ({CH2CO}-NYDWV[Bip]I[Orn][dL]RLVTCA-NH2; thioether N-14) 0.0158
